Assay: melting temperature; fluorescence melt of hairpins on a sequencing array, two-state fit, raised by 9.35 °C to match UV melts
Conditions: sodium 0.088 M
Recorded measurements of Tm, one per entry
Recorded Metric: Tm (°C)

>>> recorded_result("GGGAAGACGAAAGTCCCC (((..(((....))))))")
45.3
>>> recorded_result("GATCGTTAGGACGATC ((((((....))))))")
55.2
>>> recorded_result("GCTTCATCGAAAGATAGC (((..(((....))))))")
28.3
>>> recorded_result("GCCTCACGAAAGTGCGGC (((.(((....))).)))")
57.7
>>> recorded_result("GTGTAACGAAAGTTTCAC (((.(((....))).)))")
44.9
>>> recorded_result("GCGTTAGGAAACTAGTGC ((..(((....)))..))")
25.7
>>> recorded_result("GGCGCCGAAAGGCCAGCC ((((((....)))..)))")
61
>>> recorded_result("GCGTGATCGAAAGATCGC (((..(((....))))))")
47.5
>>> recorded_result("GTCCACCCGAAAGGGGAC (((..(((....))))))")
47
>>> recorded_result("GACCAACGAAAGTTTGTC (((.(((....))).)))")
41.7
>>> recorded_result("GATCTTCATAAGATC ((((((...))))))")
43.4
>>> recorded_result("GCCCGCGAAAGCGCAGGC ((((((....)))..)))")
56.3
>>> recorded_result("GCACCCTCGAAAGAGTGC (((..(((....))))))")
41.6
>>> recorded_result("CGGTCTCGGAAACGACCG (((..(((....))))))")
46.7
>>> recorded_result("GATCCTTTGTAGGATC ((((((....))))))")
52.6
>>> recorded_result("GATCGACTGCTCGATC ((((((....))))))")
50.9
>>> recorded_result("GCTTTGCGAAAGCCCAGC (((..((....))..)))")
31.5
>>> recorded_result("CGGCATCGGAAACGACCG (((..(((....))))))")
34.4
>>> recorded_result("CGACCGGAAACGGGGTCG ((((((....)))..)))")
48.6
>>> recorded_result("GTTTGGTCGAAAGACAAC (((..(((....))))))")
31.4
>>> recorded_result("GCCACTACGAAAGTAGGC (((..(((....))))))")
41.5
>>> recorded_result("GCTCGGCGAAAGCCCCGC ((..(((....)))..))")
44.6
>>> recorded_result("GGGAACGGAAACGTTCTC (.(((((....))))).)")
52.9
>>> recorded_result("GCTGTGCGAAAGCCGAGC (((..((....))..)))")
41.8
>>> recorded_result("GTCTGAGGAAACTCAAAC ((.((((....)))).))")
24.5
>>> recorded_result("GATCGATAGTTCGATC ((((((....))))))")
50.8
>>> recorded_result("GGTTCAGCGAAAGCTACC (((..(((....))))))")
32.7
>>> recorded_result("GATCACGAGTGTGATC ((((((....))))))")
56.3
>>> recorded_result("GGAGACGAAAGTCCATCC ((((((....)))..)))")
30.3
>>> recorded_result("GGGGTTGGAAACAGCTCC ((.(.((....)).).))")
37
>>> recorded_result("CGCTCGGAAACGAAGGCG ((((((....)))..)))")
44.7
>>> recorded_result("GACGACGAAAGTCAGTC ((((((....))).)))")
54.1
>>> recorded_result("GGGAACGAAAGTTGGCCC ((((((....)))..)))")
32
>>> recorded_result("GTCATGCGAAAGCAGAC (((.(((....))))))")
49.8
>>> recorded_result("GTAAATGGAAACGTTTAC (((((.(....).)))))")
35
>>> recorded_result("GGCGATGGAAACGTTGCC (((.(.(....).).)))")
44.9
>>> recorded_result("GTGTCGGGAAACCGATAC ((.((((....)))).))")
52.1
>>> recorded_result("GGAGTGGGAAACTACTCC (((((.(....).)))))")
49.5
>>> recorded_result("GCGGGAGGAAACTTCCGC ((((.((....)).))))")
58.6
>>> recorded_result("GCTGAGCGAAAGCACAGC ((((.((....)).))))")
67.8
>>> recorded_result("GTAAGACGAAAGTCCTAC (((.(((....))).)))")
34.7
>>> recorded_result("GTTTTAGAAATAAAAC ((((((....))))))")
36.7
>>> recorded_result("GGTCCGGGAAACCGGATC (.(((((....))))).)")
58.9
>>> recorded_result("CGGCCGGAAACGGCACCG ((((((....)))..)))")
34.5
>>> recorded_result("GATCTACCCGTAGATC ((((((....))))))")
50.8
>>> recorded_result("GTGCTCGGAAACGAGCGC (.(((((....))))).)")
64.5
>>> recorded_result("ACGTTGAAAAACGT (((((....)))))")
47.1
>>> recorded_result("GCGGGAATCCGC ((((....))))")
68.3
>>> recorded_result("GTCGGTGGAAACACCAAC ((.((((....)))).))")
39.4
>>> recorded_result("GTTTGGCGAAAGCCGAAC (((.(((....))).)))")
58.8

The reported measurements were obtained from the array DNA melting data of Ke et al. (doi:10.1101/2024.01.08.574731).
